All values here come from patent US20240166635A1.

Biological target: CDK6/CyclinD1 (Homo sapiens (Human))
Sequence (Q00534 whole entry): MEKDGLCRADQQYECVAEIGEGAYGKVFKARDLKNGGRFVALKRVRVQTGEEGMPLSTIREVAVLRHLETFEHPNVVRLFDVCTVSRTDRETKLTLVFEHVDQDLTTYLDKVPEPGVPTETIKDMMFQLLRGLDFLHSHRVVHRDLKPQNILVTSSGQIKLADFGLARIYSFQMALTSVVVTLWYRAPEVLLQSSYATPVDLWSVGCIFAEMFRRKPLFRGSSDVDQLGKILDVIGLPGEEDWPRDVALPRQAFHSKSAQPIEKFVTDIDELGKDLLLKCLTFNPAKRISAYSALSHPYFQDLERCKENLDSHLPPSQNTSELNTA
Sequence (P24385 whole entry partner): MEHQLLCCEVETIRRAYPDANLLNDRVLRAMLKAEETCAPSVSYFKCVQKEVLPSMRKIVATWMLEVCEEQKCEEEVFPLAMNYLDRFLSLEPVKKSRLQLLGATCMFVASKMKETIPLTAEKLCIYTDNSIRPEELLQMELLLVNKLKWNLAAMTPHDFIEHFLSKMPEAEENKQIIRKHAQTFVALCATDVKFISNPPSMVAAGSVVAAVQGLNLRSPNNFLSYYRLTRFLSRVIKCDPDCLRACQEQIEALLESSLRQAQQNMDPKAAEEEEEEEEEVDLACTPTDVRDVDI
Test: CDK6/CyclinD1 kinase inhibitory activity (Caliper mobility shift)
Details: read-out: CDK6/Cyclin D1 IC50
pIC50: −log10 of the molar value.
measurementLabel: pIC50

For the compound [2H]C([2H])([2H])NS(=O)(=O)c1ccc(Nc2ncc(C#N)c(OC3CCCOCC3)n2)cc1 (single isomer, unassigned) [Example 33a] , give its measured pIC50 value.
6.00 to 7.00

Identify the reported pIC50 for the following entry. COCCS(=O)(=O)N1CCC(Nc2ncc(C#N)c(OCC3(C)CCCC3)n2)CC1 [Example 58]
7.00 to 8.00

Give pIC50 for the following compound: CCS(=O)(=O)N1CCC(Nc2ncc(C#N)c(OC3CCCC3(C)O)n2)CC1 (single isomer, unassigned) [Example 36b]
7.00 to 8.00

Give the reported pIC50 for this compound. O=S(=O)(NC1CCOCC1)c1ccc(Nc2ncc(Cl)c(O[C@@H]3CCC[C@@H]3O)n2)cc1 (single isomer, unassigned) [Example 130a]
6.00 to 7.00

Using known records, supply pIC50 for Cn1cc(S(=O)(=O)N2CCC(Nc3ncc(C#N)c(O[C@@H]4CCC(F)(F)C[C@]4(C)O)n3)CC2)cn1 (relative stereo) [Example 7b]
6.00 to 7.00

Output measured pIC50 for this item: CNS(=O)(=O)c1ccc(Nc2ncc(C(F)(F)F)c(OC3CCCC3O)n2)cc1 (single isomer, unassigned) [Example 105a]
6.00 to 7.00

Provide pIC50 value for the following compound: CC1(O)CCC(F)(F)CC1Oc1nc(NC2CCN(S(C)(=O)=O)CC2)ncc1C#N (single isomer, unassigned) [Example 46a]
6.00 to 7.00

Quote pIC50 reported for CC1(O)CCCC1Oc1nc(NC2CCN(S(=O)(=O)CC3CC3)CC2)ncc1C#N (single isomer, unassigned) [Example 38a] please.
> 8.00

Please look at this compound and report its pIC50: Cn1cnc(S(=O)(=O)N2CCC(Nc3ncc(C#N)c(OC4CCCC4(C)O)n3)CC2)n1 (single isomer, unassigned) [Example 51b]
6.00 to 7.00

Could you please provide reported pIC50 for N#Cc1cnc(Nc2ccc(S(=O)(=O)NC3COC3)cc2)nc1N1CCCCC1 [Example 66] ? Thanks!
6.00 to 7.00
